// IC50 lookup, one value per entry
Target: HLA-DRB1*1501 (Homo sapiens, UniProt P01903+P01911)
Construct: purchased
Assay: biochemical
Assay type: binding
Conditions: binding inhibition assay; NB = non-binder (no dose-dependent inhibition); read-out: DRB1*1501 IC50
Where a SMILES comes first, the peptide text is derived from it.
# value in µM; strip the unit string

compound	system.name	units	IC50
CC[C@H](C)[C@H](NC(=O)[C@H](CO)NC(=O)[C@@H](NC(=O)[C@@H]1CCCN1C(=O)[C@@H](NC(=O)[C@H](CC(=O)O)NC(C)=O)C(C)C)[C@@H](C)CC)C(=O)N[C@H](C(=O)N[C@@H](CCCNC(=N)N)C(=O)N[C@@H](CC(N)=O)C(=O)N[C@@H](CC(N)=O)C(=O)N[C@@H](CCC(=O)O)C(=O)N[C@@H](CCC(N)=O)C(=O)N[C@H](C(=O)N[C@@H](CO)C(=O)N[C@@H](CCC(N)=O)C(=O)N[C@@H](CCC(=O)O)C(=O)N[C@@H](C)C(N)=O)[C@@H](C)O)[C@@H](C)CC [EBA175_014] (Ac-DVPISIIRNNEQTSQEA-NH2)	HLA-DRB1*1501 (Homo sapiens, UniProt P01903+P01911)	µM	3.09

Now look at this entry.
Look at this compound and give its reported IC50. CC[C@H](C)[C@H](NC(=O)[C@H](CCSC)NC(=O)[C@H](CO)NC(=O)[C@H](C)N)C(=O)N[C@@H](CCCCN)C(=O)N[C@@H](CO)C(=O)N[C@@H](C)C(=O)N[C@@H](Cc1ccccc1)C(=O)N[C@@H](CC(C)C)C(=O)N1CCC[C@H]1C(=O)N[C@H](C(=O)NCC(=O)N[C@@H](C)C(=O)N[C@@H](Cc1ccccc1)C(=O)N[C@@H](CCCCN)C(N)=O)[C@@H](C)O [AMA1_006B] (H-ASMIKSAFLPTGAFK-NH2)
14.5

====

Molecular target: HLA-A*2402 (Homo sapiens, UniProt P04439, D101N/D140Y/D185E/E176V/E190D/F33S/G103R/G107R/I119L/I121M/I306V/K335N/L105A/L180Q/L300P/N151K/N90K/Q86E/Q94H/R106L/R138H/R89G/T104I/T345S/V100E/W191G/Y123F)
Assay: In vitro class I HLA binding assay (fluorescence polarization competition)
Conditions: allele A*2402; fluorescence polarization competition; read-out: IC50 (nM), in vitro HLA binding affinity
Where a SMILES comes first, the peptide text is derived from it.
readout.label: IC50 (nM)
# value in nM; strip the unit string

molecule	experimental.result
N=C(N)NCCC[C@H](NC(=O)CNC(=O)[C@H](Cc1ccccc1)NC(=O)[C@@H](N)CC(N)=O)C(=O)NCC(=O)N[C@@H](CCC(N)=O)C(=O)N[C@@H](CC(N)=O)C(=O)N[C@@H](Cc1ccc(O)cc1)C(=O)N[C@@H](Cc1c[nH]c2ccccc12)C(=O)O [AMA1_020] (H-NFGRGQNYW-OH)	229

Look at this molecule and give its reported IC50. CC[C@H](C)[C@H](NC(=O)[C@H](Cc1ccc(O)cc1)NC(=O)[C@@H](NC(=O)[C@@H](NC(=O)[C@@H](NC(=O)[C@@H](N)CC(C)C)[C@@H](C)O)[C@@H](C)CC)[C@@H](C)CC)C(=O)N[C@@H](Cc1c[nH]cn1)C(=O)N[C@@H](CC(C)C)C(=O)N[C@@H](Cc1ccccc1)C(=O)O [RH5_010] (H-LTIIYIHLF-OH)
69500

Okay, and CC[C@H](C)[C@H](NC(=O)[C@H](CO)NC(=O)[C@H](CC(N)=O)NC(=O)[C@H](Cc1ccc(O)cc1)NC(=O)[C@@H](N)CO)C(=O)N[C@@H](Cc1ccc(O)cc1)C(=O)N[C@@H](Cc1c[nH]cn1)C(=O)N[C@@H](CCCCN)C(=O)N[C@@H](CO)C(=O)O [RH5_189] (H-SYNSIYHKS-OH) ?
57700

====

// pIC50 lookup, one value per entry
Molecular target: HLA-DRB1*1101 (Homo sapiens, UniProt P01903+P01911, A100R/A169T/A87E/I96F/K41T/L162R/M171V/P40S/Q125H/Q178H/Q39Y/Q99D/R42S/S66Y/T262R/V115G/W38E)
Sequence (P01903 26-254 limits assumed, other chains not shown): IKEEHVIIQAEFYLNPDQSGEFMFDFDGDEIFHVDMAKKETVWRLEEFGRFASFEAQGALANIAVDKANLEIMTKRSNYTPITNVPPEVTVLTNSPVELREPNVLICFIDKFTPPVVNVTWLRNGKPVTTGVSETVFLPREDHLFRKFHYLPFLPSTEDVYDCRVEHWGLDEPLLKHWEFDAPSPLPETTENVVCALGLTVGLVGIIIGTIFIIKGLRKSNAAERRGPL
Experiment: biochemical
Type: binding
Conditions: binding inhibition assay; NB = non-binder (no dose-dependent inhibition); read-out: DRB1*1101 IC50
Source text: The binding assay conducted by EpiVax yields an indirect measure of peptide-MHC affinity as it utilizes a competition assay format per the methodology described in Steere et al. ([35]). […] Time-resolved fluorescence measurement of the bound labeled reference peptide complex present in each mixture is detected with a europium-linked probe via fluorescent spectrophotometry using a SpectraMax M5 system. […]
Where a SMILES comes first, the peptide text is derived from it.
// pIC50 is dimensionless: -log10 of concentration (M)

compound	pIC50
CC(=O)N[C@@H](CCC(=O)O)C(=O)N[C@@H](CCC(=O)O)C(=O)NCC(=O)N[C@@H](Cc1ccc(O)cc1)C(=O)N[C@@H](CCCCN)C(=O)N[C@@H](CC(N)=O)C(=O)N[C@H](C(=O)N[C@@H](CCCCN)C(=O)NCC(=O)N[C@@H](CCCCN)C(=O)N[C@@H](CS)C(=O)N[C@H](C(=O)N1CCC[C@H]1C(=O)N[C@@H](CC(=O)O)C(=O)N[C@@H](CC(N)=O)C(=O)N[C@@H](CCCCN)C(N)=O)C(C)C)C(C)C [RIPR_015] (Ac-EEGYKNVKGKCVPDNK-NH2)	4.49

Look at this compound and give its reported pIC50. CSCC[C@H](NC(=O)[C@@H](NC(=O)[C@H](Cc1c[nH]cn1)NC(=O)[C@H](Cc1ccccc1)NC(=O)CNC(=O)[C@H](Cc1c[nH]cn1)NC(=O)[C@H](CCCCN)NC(C)=O)[C@@H](C)O)C(=O)N[C@@H](CC(N)=O)C(=O)N[C@@H](CC(N)=O)C(=O)N[C@@H](CC(C)C)C(=O)N[C@@H](Cc1c[nH]cn1)C(=O)NCC(=O)N[C@@H](CC(=O)O)C(=O)NCC(=O)N[C@H](C(=O)N[C@@H](CO)C(=O)N[C@@H](CCC(=O)O)C(N)=O)C(C)C [EBA175_016] (Ac-KHGFHTMNNLHGDGVSE-NH2)
5.06

====

Biological target: HLA-A*0101 (Homo sapiens, UniProt P04439, A114D/A174V/A182V/D101N/D185E/E176A/E190D/L180R/Q94H/R68K/S129P/T187R/V100A/V91M/W191G)
Assay: biochemical
Assay type: binding
Settings: allele A*0101; fluorescence polarization competition; read-out: IC50 (nM), in vitro HLA binding affinity
Where a SMILES comes first, the peptide text is derived from it.
readout.label: IC50 (nM)
# value in nM; strip the unit string

compound	units	experimental.result
N=C(N)NCCC[C@H](NC(=O)[C@@H](N)Cc1c[nH]cn1)C(=O)N[C@@H](CCC(=O)O)C(=O)N[C@@H](Cc1c[nH]cn1)C(=O)N1CCC[C@H]1C(=O)N[C@@H](CCCCN)C(=O)N[C@@H](CCC(=O)O)C(=O)N[C@@H](Cc1ccc(O)cc1)C(=O)N[C@@H](CCC(=O)O)C(=O)N[C@@H](Cc1ccc(O)cc1)C(=O)O [AMA1_044] (H-HREHPKEYEY-OH)	nM	11100

Now look at this entry.
Look at this compound and give its reported IC50. CC[C@H](C)[C@H](NC(=O)[C@H](CO)NC(=O)[C@@H](N)CC(N)=O)C(=O)N[C@@H](CC(C)C)C(=O)N[C@H](C(=O)N[C@@H](CCCCN)C(=O)N1CCC[C@H]1C(=O)N[C@@H](CCC(=O)O)C(=O)N[C@@H](CCCCN)C(=O)N[C@@H](Cc1ccc(O)cc1)C(=O)O)[C@@H](C)CC [CYRPA_311] (H-NSILIKPEKY-OH)
109000

====

// IC50 lookup, one value per entry
Biological target: HLA-DRB1*1501 (Homo sapiens, UniProt P01903+P01911)
Construct: purchased
Test: biochemical
Format: binding
Details: binding inhibition assay; NB = non-binder (no dose-dependent inhibition); read-out: DRB1*1501 IC50
Where a SMILES comes first, the peptide text is derived from it.
# value in µM; strip the unit string

Reference set, count: 3
compound	units	experimental.result
CC[C@H](C)[C@H](NC(=O)[C@H](CS)NC(=O)[C@H](CCC(=O)O)NC(=O)CNC(=O)[C@H](CCCNC(=N)N)NC(=O)[C@H](CO)NC(=O)[C@H](CO)NC(=O)[C@H](CCCNC(=N)N)NC(=O)[C@H](Cc1ccc(O)cc1)NC(=O)[C@H](Cc1ccc(O)cc1)NC(=O)[C@H](Cc1c[nH]cn1)NC(=O)[C@H](CCC(=O)O)NC(=O)[C@H](CCCCN)NC(C)=O)C(=O)N[C@@H](CC(C)C)C(=O)N[C@@H](CC(N)=O)C(=O)N[C@@H](CC(=O)O)C(N)=O [RIPR_017] (Ac-KEHYYRSSRGECILND-NH2)	µM	58.2
CC[C@H](C)[C@H](NC(=O)[C@H](CC(N)=O)NC(=O)[C@H](CC(N)=O)NC(=O)[C@H](CCCCN)NC(=O)[C@H](Cc1c[nH]cn1)NC(=O)[C@H](CCC(=O)O)NC(=O)[C@H](CO)NC(=O)[C@H](CC(C)C)NC(=O)[C@H](CCSC)NC(=O)[C@H](C)NC(=O)[C@H](CCC(=O)O)NC(=O)[C@H](Cc1c[nH]c2ccccc12)NC(=O)[C@H](CC(C)C)NC(=O)[C@H](CCCCN)NC(=O)[C@H](CCC(=O)O)NC(C)=O)C(=O)N[C@@H](CC(N)=O)C(=O)N[C@@H](CC(N)=O)C(N)=O [EBA175_008] (Ac-EKLWEAMLSEHKNNINN-NH2)	µM	80.6
CSCC[C@H](N)C(=O)N[C@@H](CCCNC(=N)N)C(=O)N[C@@H](CCCCN)C(=O)N[C@@H](CC(C)C)C(=O)N[C@@H](Cc1ccc(O)cc1)C(=O)N[C@@H](CS)C(=O)N[C@H](C(=O)N[C@@H](CC(C)C)C(=O)N[C@@H](CC(C)C)C(=O)N[C@@H](CC(C)C)C(=O)N[C@@H](CO)C(=O)N[C@@H](C)C(=O)N[C@@H](Cc1ccccc1)C(=O)N[C@@H](CCC(=O)O)C(=O)N[C@@H](Cc1ccccc1)C(=O)N[C@H](C(=O)N[C@@H](Cc1ccc(O)cc1)C(N)=O)[C@@H](C)O)C(C)C [AMA1_001] (H-MRKLYCVLLLSAFEFTY-NH2)	µM	0.751

Now look at this entry.
Look at this compound and give its reported IC50. CC[C@H](C)[C@H](NC(=O)[C@H](CC(C)C)NC(=O)[C@H](Cc1c[nH]cn1)NC(=O)[C@H](Cc1ccccc1)NC(=O)[C@H](CCCCN)NC(=O)[C@H](CO)NC(=O)[C@H](CCCCN)NC(C)=O)C(=O)N[C@@H](CO)C(=O)N[C@@H](CCCNC(=N)N)C(=O)N[C@@H](CC(N)=O)C(=O)N[C@@H](CO)C(=O)N[C@@H](CCCNC(=N)N)C(=O)N[C@H](C(=O)N[C@@H](CC(N)=O)C(=O)N[C@@H](CCC(N)=O)C(=O)N[C@@H](Cc1ccc(O)cc1)C(N)=O)[C@@H](C)O [RIPR_009] (Ac-KSKFHLISRNSRTNQY-NH2)
15.8
